Answer each item with its documented glycan array binding signal (z-score).
Molecular target: Neu5Ac(a2-3)Gal6S(b1-4)GlcNAc
Experiment: glycan array binding signal (z-score within array); higher = stronger binding
Details: glycan notation: IUPAC condensed, linker removed
Shown is part of a subset that was picked to be rich in the strongest signals.
Give bare numbers.

Recorded glycan array binding signal (z-score), per entry:
Binder	Measured Quantity	Quantitative Readout
PP2A1 (Arabidopsis thaliana) (protein) MFRNQDSKYLIPVQKEAPPVTTLPMKASTVKSPHNCEAILRDADPPISLSSVNLSEQLRSGVFLKPKKQIKYWVDERNSNCFMLFAKNLSITWSDDVNYWTWFTEKESPNENVEAVGLKNVCWLDITGKFDTRNLTPGIVYEVVFKVKLEDPAYGWDTPVNLKLVLPNGKEKPQEKKVSLRELPRYKWVDVRVGEFVPEKSAAGEITFSMYEHAAGVWKKGLSLKGVAIRPKQHHHHHH	glycan array binding signal (z-score)	0.07
MUB70 (Lactobacillus reuteri) (protein) CVHVQYIDGETDQMLRQDDLDGYTDETIPYSTAEGIKKFEGDGYELFKDNFPAGEKFDNDDTNDQFYTVIF	glycan array binding signal (z-score)	-0.909
Erv41-EDTA (Saccharomyces cerevisiae), Q04651 (protein) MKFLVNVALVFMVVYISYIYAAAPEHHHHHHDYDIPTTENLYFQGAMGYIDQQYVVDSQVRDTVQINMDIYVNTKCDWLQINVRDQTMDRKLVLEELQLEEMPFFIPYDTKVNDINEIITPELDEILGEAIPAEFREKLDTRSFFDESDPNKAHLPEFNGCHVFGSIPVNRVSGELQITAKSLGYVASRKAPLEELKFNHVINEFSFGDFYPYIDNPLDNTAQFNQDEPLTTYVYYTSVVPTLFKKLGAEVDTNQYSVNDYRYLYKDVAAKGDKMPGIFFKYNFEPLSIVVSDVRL	glycan array binding signal (z-score)	0.025
Gal 1 (Mus musculus), P16045 (protein) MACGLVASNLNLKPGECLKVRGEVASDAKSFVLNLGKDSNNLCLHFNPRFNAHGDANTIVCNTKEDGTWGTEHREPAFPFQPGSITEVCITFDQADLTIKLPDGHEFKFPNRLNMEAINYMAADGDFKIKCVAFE	glycan array binding signal (z-score)	-0.411
Nictaba (Nicotiana tabacum), Q94EW1 (protein) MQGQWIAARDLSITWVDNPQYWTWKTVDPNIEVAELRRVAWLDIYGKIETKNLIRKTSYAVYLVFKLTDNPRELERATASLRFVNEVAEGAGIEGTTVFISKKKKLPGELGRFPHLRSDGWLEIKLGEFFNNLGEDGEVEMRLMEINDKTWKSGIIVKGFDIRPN	glycan array binding signal (z-score)	-0.272

Next binder, glycan array binding signal (z-score) to be filled in.
For the binder shown here, HPA (Helix pomatia), Q575S3 (protein) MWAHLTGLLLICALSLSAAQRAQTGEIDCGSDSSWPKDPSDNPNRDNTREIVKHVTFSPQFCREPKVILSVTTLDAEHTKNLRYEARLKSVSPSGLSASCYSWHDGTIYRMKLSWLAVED , give the reported glycan array binding signal (z-score). -0.273
